- TEST_SYSTEM: UniProt Q12809
- Sequence (Q12809 whole entry): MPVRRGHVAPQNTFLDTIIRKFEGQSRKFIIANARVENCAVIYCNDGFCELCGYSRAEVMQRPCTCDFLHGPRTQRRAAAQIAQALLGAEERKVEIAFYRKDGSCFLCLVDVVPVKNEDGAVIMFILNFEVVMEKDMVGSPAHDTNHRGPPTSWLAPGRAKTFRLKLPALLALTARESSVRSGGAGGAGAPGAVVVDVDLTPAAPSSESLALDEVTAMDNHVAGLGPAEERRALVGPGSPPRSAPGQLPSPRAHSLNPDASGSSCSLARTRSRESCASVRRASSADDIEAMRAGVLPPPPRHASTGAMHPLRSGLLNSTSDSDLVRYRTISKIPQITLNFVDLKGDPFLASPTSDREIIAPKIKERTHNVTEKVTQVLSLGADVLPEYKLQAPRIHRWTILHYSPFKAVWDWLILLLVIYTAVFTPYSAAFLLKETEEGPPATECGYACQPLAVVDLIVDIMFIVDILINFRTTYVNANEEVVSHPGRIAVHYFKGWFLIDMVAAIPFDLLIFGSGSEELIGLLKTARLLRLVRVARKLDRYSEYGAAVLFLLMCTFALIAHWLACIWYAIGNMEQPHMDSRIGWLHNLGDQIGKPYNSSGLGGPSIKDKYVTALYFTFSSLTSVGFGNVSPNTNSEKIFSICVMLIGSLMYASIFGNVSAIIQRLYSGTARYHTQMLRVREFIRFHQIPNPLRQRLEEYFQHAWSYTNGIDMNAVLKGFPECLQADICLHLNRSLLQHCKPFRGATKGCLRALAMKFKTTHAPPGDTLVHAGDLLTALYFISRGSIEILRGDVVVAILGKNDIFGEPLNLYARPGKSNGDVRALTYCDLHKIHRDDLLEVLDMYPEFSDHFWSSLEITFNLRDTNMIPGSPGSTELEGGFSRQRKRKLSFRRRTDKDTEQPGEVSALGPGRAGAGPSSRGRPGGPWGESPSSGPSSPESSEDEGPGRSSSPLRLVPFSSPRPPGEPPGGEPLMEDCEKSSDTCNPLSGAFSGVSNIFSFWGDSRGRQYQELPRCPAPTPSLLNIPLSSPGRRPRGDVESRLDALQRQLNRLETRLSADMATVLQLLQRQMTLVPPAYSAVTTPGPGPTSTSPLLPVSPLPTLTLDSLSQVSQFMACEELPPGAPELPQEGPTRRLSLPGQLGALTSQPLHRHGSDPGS
pKi: −log10 of the molar value.
Classification field: enter class 1 for pKi values not below 5, class 0 for values below it.

{"COMPOUND": "Cc1cn2c(N)ccc(C(=O)NCC3CCN(CC(C)C)CC3)c2n1", "CATEGORY_LABEL": "class 0"}
{"COMPOUND": "Cc1cn2c(N)c(Cl)cc(C(=O)NCC3CCN(CC(C)C)CC3)c2n1", "CATEGORY_LABEL": "class 1"}
{"COMPOUND": "CCCCN1CCC(CNC(=O)c2cc(Cl)c(N)n3cc(C)nc23)CC1 [Compound A, reference compound]", "CATEGORY_LABEL": "class 1"}

Okay, now this compound:
query: Please tell me: is the compound CCc1cn2c(N)c(Cl)cc(C(=O)NCC3CCN(CCC(C)(C)C)CC3)c2n1 at or over 5 in terms of pKi?
result: class 1
